system: HepG2; test: Antiproliferative activity against human HepG2 cells after 72 hrs CCK8 assay; assay type: functional, cell-based; conditions: HepG2, 72 h
measure.name: IC50 (µM)

>  <smiles.notation>
Nc1ccccc1NC(=O)CCCc1ccc(N(CCCl)CCCl)cc1

>  <value.unit>
µM

>  <result.value>
14.2

$$$$

---

biological target: Protein deacetylase HDAC6 (Homo sapiens, UniProt Q9UBN7); experiment: Inhibition of recombinant human HDAC6 using FLUOR DE LYS SIRT1, deacetylase as substrate after 1 hr by fluorescence assay
Sequence (Q9UBN7 whole entry): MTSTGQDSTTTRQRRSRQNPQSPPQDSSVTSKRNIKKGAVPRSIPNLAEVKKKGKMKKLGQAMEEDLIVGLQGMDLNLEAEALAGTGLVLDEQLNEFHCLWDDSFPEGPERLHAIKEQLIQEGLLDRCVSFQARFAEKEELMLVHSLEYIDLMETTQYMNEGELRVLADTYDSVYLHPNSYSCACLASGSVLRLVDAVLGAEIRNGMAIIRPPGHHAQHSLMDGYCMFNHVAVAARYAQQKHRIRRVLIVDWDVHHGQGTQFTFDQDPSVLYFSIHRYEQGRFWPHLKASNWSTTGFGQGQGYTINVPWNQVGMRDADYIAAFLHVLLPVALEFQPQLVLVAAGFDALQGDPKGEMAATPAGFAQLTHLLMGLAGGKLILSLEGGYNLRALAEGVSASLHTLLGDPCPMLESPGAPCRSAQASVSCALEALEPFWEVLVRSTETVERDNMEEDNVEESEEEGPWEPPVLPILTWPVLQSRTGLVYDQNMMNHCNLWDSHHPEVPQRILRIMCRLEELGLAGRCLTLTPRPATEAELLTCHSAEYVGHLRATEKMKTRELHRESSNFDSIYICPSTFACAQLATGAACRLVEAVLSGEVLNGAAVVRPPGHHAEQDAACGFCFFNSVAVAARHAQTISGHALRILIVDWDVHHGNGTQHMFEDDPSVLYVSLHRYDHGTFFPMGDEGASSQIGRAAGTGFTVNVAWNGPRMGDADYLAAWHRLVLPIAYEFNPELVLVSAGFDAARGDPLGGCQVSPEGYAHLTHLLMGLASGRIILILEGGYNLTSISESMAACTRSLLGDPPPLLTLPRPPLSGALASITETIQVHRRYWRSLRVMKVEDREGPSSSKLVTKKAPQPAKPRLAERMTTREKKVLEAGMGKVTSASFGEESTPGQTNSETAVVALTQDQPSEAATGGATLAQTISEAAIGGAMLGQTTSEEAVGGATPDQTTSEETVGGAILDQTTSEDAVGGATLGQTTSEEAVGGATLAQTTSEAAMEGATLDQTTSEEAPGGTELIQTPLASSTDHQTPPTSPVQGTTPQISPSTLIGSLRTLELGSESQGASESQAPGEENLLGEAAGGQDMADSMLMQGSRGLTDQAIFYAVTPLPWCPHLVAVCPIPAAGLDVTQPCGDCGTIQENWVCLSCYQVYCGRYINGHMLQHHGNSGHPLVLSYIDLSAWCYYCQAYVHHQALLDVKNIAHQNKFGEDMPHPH

>  <smiles.notation>
Nc1ccccc1NC(=O)CCCc1ccc(N(CCCl)CCCl)cc1

>  <IC50>
> 160 µM

$$$$

---

target: Histone deacetylase 3/NCoR1 (Homo sapiens, UniProt O15379); experiment: Inhibition of recombinant human HDAC3/NCOR1 using FLUOR DE LYS SIRT1 deacetylase substrate after 1 hr by fluorescence assay
Sequence (O15379 whole entry): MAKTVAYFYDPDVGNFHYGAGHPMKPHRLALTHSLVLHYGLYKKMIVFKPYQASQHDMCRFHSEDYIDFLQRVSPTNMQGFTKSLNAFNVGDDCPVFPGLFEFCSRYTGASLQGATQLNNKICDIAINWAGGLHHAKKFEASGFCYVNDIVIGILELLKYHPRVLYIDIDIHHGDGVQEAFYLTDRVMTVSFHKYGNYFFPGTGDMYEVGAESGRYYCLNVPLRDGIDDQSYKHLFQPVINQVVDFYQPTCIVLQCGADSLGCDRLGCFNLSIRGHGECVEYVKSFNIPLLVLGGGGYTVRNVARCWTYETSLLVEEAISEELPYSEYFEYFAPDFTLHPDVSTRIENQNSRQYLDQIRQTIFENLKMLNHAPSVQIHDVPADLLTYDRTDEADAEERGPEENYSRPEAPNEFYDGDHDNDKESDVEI
Sequence (O75376 whole entry, further chain): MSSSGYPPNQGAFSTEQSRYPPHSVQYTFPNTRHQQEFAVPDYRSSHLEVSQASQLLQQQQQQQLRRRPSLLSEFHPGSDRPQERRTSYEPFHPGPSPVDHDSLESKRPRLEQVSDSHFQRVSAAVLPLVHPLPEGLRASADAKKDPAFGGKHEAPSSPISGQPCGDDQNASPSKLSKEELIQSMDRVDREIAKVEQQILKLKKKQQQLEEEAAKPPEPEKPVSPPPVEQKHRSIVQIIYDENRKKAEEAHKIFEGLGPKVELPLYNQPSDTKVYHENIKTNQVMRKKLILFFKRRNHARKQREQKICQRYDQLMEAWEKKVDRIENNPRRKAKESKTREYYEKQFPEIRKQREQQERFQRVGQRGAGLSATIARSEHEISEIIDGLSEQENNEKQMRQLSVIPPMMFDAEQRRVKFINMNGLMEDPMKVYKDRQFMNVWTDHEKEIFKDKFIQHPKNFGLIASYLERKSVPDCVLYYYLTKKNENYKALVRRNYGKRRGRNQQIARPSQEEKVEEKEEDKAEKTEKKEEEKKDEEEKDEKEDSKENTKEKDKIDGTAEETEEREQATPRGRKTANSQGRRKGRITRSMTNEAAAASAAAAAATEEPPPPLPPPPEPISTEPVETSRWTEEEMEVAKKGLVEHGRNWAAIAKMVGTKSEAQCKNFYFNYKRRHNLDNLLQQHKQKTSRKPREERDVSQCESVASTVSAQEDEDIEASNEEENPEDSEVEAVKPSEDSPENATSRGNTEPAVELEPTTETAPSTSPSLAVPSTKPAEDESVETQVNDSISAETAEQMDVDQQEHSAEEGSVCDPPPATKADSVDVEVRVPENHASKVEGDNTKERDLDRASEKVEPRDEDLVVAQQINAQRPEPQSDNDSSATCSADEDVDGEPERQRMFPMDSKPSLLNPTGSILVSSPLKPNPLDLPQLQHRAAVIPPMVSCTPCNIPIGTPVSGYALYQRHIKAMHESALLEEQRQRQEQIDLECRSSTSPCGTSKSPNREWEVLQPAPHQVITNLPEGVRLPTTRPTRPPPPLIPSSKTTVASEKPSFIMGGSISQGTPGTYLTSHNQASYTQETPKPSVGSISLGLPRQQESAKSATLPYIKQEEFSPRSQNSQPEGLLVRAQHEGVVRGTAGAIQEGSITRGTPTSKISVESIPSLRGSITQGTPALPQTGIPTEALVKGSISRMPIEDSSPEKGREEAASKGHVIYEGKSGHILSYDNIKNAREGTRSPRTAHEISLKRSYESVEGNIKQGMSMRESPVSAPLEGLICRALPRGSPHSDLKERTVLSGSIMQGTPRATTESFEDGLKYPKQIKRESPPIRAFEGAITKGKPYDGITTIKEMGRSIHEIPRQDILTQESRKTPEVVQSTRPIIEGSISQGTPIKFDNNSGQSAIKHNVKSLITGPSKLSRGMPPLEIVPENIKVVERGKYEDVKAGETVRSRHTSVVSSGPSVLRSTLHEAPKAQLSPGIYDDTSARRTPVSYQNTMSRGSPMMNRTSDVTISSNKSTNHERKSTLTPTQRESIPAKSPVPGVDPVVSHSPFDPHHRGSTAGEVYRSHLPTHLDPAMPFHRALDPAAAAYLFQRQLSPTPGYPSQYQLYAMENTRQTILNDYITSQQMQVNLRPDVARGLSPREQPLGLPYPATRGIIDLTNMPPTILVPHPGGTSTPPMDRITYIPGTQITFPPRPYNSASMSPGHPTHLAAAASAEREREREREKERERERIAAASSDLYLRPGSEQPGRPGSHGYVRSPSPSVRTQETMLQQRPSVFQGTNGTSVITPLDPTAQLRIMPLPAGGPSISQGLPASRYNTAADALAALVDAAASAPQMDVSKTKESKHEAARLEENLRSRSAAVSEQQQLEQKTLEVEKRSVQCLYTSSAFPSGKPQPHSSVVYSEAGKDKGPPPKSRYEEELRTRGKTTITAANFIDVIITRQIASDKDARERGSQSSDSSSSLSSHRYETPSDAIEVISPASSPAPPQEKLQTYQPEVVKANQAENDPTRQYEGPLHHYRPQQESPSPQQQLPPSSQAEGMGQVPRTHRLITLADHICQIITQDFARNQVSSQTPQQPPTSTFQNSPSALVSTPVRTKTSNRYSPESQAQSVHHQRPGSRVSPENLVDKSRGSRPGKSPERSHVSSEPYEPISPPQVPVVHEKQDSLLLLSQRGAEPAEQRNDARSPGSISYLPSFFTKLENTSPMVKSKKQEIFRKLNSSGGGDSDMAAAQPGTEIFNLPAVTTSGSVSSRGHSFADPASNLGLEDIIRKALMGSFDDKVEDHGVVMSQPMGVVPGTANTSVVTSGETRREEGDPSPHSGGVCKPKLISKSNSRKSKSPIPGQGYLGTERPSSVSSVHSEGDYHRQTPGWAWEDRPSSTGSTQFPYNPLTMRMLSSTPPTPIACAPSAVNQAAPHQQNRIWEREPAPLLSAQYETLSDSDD
pIC50: −log10 of the molar value.
measure.name: pIC50

>  <smiles.notation>
Nc1ccccc1NC(=O)CCCc1ccc(N(CCCl)CCCl)cc1

>  <result.value>
5.02

$$$$

---

system: A549; experiment: Antiproliferative activity against human A549 cells after 72 hrs CCK8 assay; type: functional, cell-based; conditions: A549, 72 h
pIC50: −log10 of the molar value.

>  <smiles.notation>
Nc1ccccc1NC(=O)CCCc1ccc(N(CCCl)CCCl)cc1

>  <pIC50>
5.21

$$$$

---

target: Histone deacetylase 2 (Homo sapiens, UniProt Q92769); test: Inhibition of recombinant human HDAC2 using FLUOR DE LYS-Green as substrate after 1 hr by fluorescence assay
Sequence (Q92769 whole entry): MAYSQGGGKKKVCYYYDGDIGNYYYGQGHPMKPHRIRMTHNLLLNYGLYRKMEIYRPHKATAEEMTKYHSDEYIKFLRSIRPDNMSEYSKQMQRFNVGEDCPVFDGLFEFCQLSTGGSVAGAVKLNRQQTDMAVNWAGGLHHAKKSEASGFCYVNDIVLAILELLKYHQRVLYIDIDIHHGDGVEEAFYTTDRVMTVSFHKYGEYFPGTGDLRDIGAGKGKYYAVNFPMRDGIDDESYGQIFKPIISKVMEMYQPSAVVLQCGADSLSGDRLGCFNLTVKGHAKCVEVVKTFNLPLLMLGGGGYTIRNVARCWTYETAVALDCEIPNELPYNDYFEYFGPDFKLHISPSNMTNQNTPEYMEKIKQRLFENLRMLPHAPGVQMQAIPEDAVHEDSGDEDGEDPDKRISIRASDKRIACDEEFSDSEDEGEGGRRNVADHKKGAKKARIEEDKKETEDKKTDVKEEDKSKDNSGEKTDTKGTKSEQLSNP

>  <smiles.notation>
Nc1ccccc1NC(=O)CCCc1ccc(N(CCCl)CCCl)cc1

>  <IC50>
32.9 µM

$$$$

---

biological target: Histone deacetylase 1 (Homo sapiens, UniProt Q13547); experiment: Inhibition of recombinant human HDAC1 using FLUOR DE LYS SIRT1 deacetylase substrate after 1 hr by fluorescence assay
Sequence (Q13547 whole entry): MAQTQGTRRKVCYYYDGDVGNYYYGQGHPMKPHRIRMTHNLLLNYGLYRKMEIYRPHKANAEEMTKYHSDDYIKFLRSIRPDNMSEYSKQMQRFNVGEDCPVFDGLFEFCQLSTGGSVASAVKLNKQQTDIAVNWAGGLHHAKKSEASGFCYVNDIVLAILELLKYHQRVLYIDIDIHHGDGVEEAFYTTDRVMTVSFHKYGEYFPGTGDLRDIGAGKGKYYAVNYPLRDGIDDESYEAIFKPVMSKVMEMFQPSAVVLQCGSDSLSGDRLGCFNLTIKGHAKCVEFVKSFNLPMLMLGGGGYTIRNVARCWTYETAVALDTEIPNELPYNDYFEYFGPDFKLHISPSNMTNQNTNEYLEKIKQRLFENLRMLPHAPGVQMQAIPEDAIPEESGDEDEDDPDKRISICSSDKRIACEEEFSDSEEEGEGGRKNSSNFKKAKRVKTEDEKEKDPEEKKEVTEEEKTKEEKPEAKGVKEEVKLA
pIC50: −log10 of the molar value.
measure.name: pIC50

>  <smiles.notation>
Nc1ccccc1NC(=O)CCCc1ccc(N(CCCl)CCCl)cc1

>  <measure.name>
pIC50

>  <result.value>
< 3.80

$$$$

---

test system: SMMC-7721; assay: Antiproliferative activity against human SMMC7721 cells after 72 hrs CCK8 assay; assay type: functional, cell-based; settings: SMMC-7721, 72 h
pIC50: −log10 of the molar value.
measure.name: pIC50

>  <smiles.notation>
O=C(O)CCCc1ccc(N(CCCl)CCCl)cc1

>  <experimental.target>
SMMC-7721

>  <measure.name>
pIC50

>  <result.value>
3.79

$$$$
>  <smiles.notation>
CC(=O)Nc1ccc(C(=O)Nc2ccccc2N)cc1

>  <experimental.target>
SMMC-7721

>  <measure.name>
pIC50

>  <result.value>
4.77

$$$$
>  <smiles.notation>
Nc1ccccc1NC(=O)CCCc1ccc(N(CCCl)CCCl)cc1

>  <experimental.target>
SMMC-7721

>  <measure.name>
pIC50

>  <result.value>
5.40

$$$$
